# measured_on: prefusion-stabilized Nipah virus fusion (F) glycoprotein, construct NiVF_prefusion (Nipah virus, Malaysian strain, stabilised)
property: binding result

>  <binder>
201805_NiV_P1_G1 (antibody, V domains shown) VH: QVQLQQSGAELAKPGASVKLSCKATGYTFTGSWIEWVKLRPGHGLEWFGEIFPGTGSVKHNEKFRGKAIITAETSSNTAYMKLSSLTTEDSAIYFCSRSNTNYEFFDVWGTGTTVTVSS VL: EILLTQSPAIISASPGERVTFTCSASSGVNYMNWYQQKPGSSPKIWIYGVSNLASGVPARFSGSGSGTSFSFTITNLEAEDVATYYCQQRSTFPLTFGAGTKLEIK

>  <recorded_result>
binds

$$$$
>  <binder>
201805_NiV_P2_F7 (antibody, V domains shown) VH: QVQLQQSGAELVKPGASVKMSCKASGYTFTNYWIHWVKQRPGQGLEWIGEIDPSNGNSDHNQDFKVKATLTVDTFSSTAYMQLNSLTSEDSAVYYCARSRYYFDYWGQGTTLTVSA VL: QIVLPQSPAIMSASPGEKVTLTCSARSSVSSGYLYWYQQKPGSSPKLWIYSTSNLASGVPTRFSGSGSGTSYSLTISSMEAEDAASYFCHQWSSYPPTFGGGTKLEIK

>  <recorded_result>
binds

$$$$
>  <binder>
201805_NiV_PL3_G11 (antibody, V domains shown) VH: QVQLQQSGAELVKPGASVKLSCKASGYIFTNYDINWVRQRPEQGLEWIGWIFPGDVSTNYNEKFKGKATLTTDKSSSTAYMQLSRLTSEDSAVYFCARRSFQAMDYWGQGTSVTVSA VL: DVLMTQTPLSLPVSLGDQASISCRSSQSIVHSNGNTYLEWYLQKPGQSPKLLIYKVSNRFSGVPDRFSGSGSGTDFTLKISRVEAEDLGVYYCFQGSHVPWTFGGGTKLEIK

>  <recorded_result>
binds

$$$$
